Data credit: patent US20260098080A1

tested.on: T1, fXIIa (human, UniProt P00748 20-615, limits assumed)
T1 sequence (looked up): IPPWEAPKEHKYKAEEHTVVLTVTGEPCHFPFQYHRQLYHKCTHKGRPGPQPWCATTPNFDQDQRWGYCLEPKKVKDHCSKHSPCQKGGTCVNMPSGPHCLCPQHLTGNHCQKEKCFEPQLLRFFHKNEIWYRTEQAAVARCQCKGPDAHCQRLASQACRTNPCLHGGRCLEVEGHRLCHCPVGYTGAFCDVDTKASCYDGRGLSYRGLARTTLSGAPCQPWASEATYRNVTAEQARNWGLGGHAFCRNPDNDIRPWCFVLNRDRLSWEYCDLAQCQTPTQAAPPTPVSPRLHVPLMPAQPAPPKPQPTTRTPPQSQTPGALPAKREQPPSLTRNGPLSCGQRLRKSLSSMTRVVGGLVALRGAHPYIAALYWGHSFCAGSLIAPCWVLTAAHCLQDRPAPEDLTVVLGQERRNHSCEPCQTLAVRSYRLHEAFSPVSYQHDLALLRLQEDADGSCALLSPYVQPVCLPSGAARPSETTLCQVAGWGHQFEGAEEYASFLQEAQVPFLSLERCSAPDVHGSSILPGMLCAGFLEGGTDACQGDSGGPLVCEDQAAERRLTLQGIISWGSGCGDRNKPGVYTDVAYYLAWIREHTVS
protocol.text: cell-based or functional assay
Where no end group is shown, it is not given here.
measured.quantity: IC50, enzyme activity on synthetic substrate (µM)

binder	result
EVO23 (designed binder, not fully specified; cysteine pairing not given here, Modified TFPI-D2 Kunitz domain; made as m1) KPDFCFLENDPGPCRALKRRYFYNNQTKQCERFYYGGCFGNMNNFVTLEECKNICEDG	3.3
EVO214 (designed binder, not fully specified; ends and bridges not checked, Modified TFPI-D2 Kunitz domain; made as m1) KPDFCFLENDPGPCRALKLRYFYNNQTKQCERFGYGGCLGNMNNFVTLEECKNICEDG	3.7
EVO21 (designed binder, not fully specified; ends and bridges not checked, Modified TFPI-D2 Kunitz domain; made as m1) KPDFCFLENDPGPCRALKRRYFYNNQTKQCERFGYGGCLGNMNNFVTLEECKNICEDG	10.5
EVO24 (designed binder, not fully specified; cysteine pairing not given here, Modified TFPI-D2 Kunitz domain; made as m1) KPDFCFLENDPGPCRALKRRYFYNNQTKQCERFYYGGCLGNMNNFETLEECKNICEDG	16.1
